assay: Acute toxicity (LD50) in rats after p.o. administration (Example 6); format: in vivo; conditions: rat, in vivo, po, 2000 mg/kg, rats M; 2000 mg/kg p.o.; read-out: % of perished animals after 24 hrs
Counter-ions that a name gives are not always drawn.
parameter: mortality at 24 h (%)
Numbers only, in %.

Fill blank: measured mortality at 24 h of the compound COC(=O)C1=C(C)NC(C)=C(C(=O)OCCN(C)Cc2ccccc2)C1c1cccc([N+](=O)[O-])c1 (stereo not shown) [nicardipine hydrochloride] is ____. 40

----------
experiment: Acute toxicity (LD50) in mice after p.o. administration (Example 6); assay type: in vivo; details: mouse, in vivo, po, 6000 mg/kg, mice F; 6000 mg/kg p.o.; read-out: % of perished animals after 24 hrs
Structures can show the parent of a compound that is named as a salt.
parameter: mortality at 24 h (%)
Answers are plain numbers, in %.

Fill blank: measured mortality at 24 h of the molecule COC(=O)C1=C(C)NC(C)=C(C(=O)OCCN(C)Cc2ccccc2)C1c1cccc([N+](=O)[O-])c1 (stereo not shown) [nicardipine hydrochloride] is ____. 90

----------
experiment: Acute toxicity (LD50) in rats after p.o. administration (Example 6); assay type: in vivo; conditions: rat, in vivo, po, rats, M; p.o.; Litchfield-Wilcoxon; read-out: LD50 after 15 days
Counter-ions that a name gives are not always drawn.
parameter: LD50 at 360 h (mg/kg)
Answers are plain numbers, in mg/kg.

Fill blank: measured LD50 at 360 h of the compound COC(=O)C1=C(C)NC(C)=C(C(=O)OCCN(C)Cc2ccccc2)C1c1cccc([N+](=O)[O-])c1 (stereo not shown) [nicardipine hydrochloride] is ____. 2900

----------
experiment: Acute toxicity (LD50) in mice after p.o. administration (Example 6); assay type: in vivo; conditions: mouse, in vivo, po, mice, F; p.o.; Litchfield-Wilcoxon; read-out: LD50 after 15 days
Structures can show the parent of a compound that is named as a salt.
parameter: LD50 at 360 h (mg/kg)
Answers are plain numbers, in mg/kg.

Fill blank: measured LD50 at 360 h of the compound COC(=O)C1=C(C)NC(C)=C(C(=O)OCCN(C)Cc2ccccc2)C1c1cccc([N+](=O)[O-])c1 (stereo not shown) [nicardipine hydrochloride] is ____. 3640

----------
assay: Acute toxicity (LD50) in rats after p.o. administration (Example 6); assay type: in vivo; conditions: rat, in vivo, po, 5000 mg/kg, rats F; 5000 mg/kg p.o.; read-out: % of perished animals after 24 hrs
Counter-ions that a name gives are not always drawn.
parameter: mortality at 24 h (%)
Answers are plain numbers, in %.

Fill blank: measured mortality at 24 h of the compound COC(=O)C1=C(C)NC(C)=C(C(=O)OCCN(C)Cc2ccccc2)C1c1cccc([N+](=O)[O-])c1 (stereo not shown) [nicardipine hydrochloride] is ____. 44.4

----------
assay: Acute toxicity (LD50) in rats after p.o. administration (Example 6); format: in vivo; settings: rat, in vivo, po, 6000 mg/kg, rats F; 6000 mg/kg p.o.; read-out: % of perished animals after 24 hrs
Where a name gives a salt, the structure may show the parent alone.
parameter: mortality at 24 h (%)
One number for each entry, in %.

Fill blank: measured mortality at 24 h of the molecule COC(=O)C1=C(C)NC(C)=C(C(=O)OCCN(C)Cc2ccccc2)C1c1cccc([N+](=O)[O-])c1 (stereo not shown) [nicardipine hydrochloride] is ____. 80
